meta.source: PubChem BioAssay (NCI)

Test: NCI Yeast Anticancer Drug Screen. Data for the rad50 strain (AID 155);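 further: 0% = growth of vehicle-only cultures of the same strain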
Conditions: S. cerevisiae rad50 strain growth inhibition; at 50.0 µM
This is part of a sample that, as a whole, favours compounds with a hit. Of some 79,000 tested, about 15% had one in any assay. Calls of active or inactive are those of the source. No stated cut-off is given here; in the data, active means growth inhibition above about 70%; inactive means the rest.
Possible outcomes: active, inactive

> print(dat)
                                    molecule  class.label
 1  C=CCCCN1C(=O)C2C3c4ccccc4C(C=O)(c4ccccc43)C2C1=O (stereo unspecified)     inactive
 2   CO/C(=N\N=C(/c1ccccc1)C(F)(F)F)c1ccncc1     inactive
 3         C=Cc1cc(O)cc2c1-c1ccc(O)c(C)c1CC2       active
 4  Oc1c(Cl)cc(CN(Cc2cc(Cl)c(O)c(Cl)c2)C2CCCCC2)cc1Cl       active
 5                     C=CCCCCCCCCC(=O)OCC=C     inactive
 6  COc1ccc(/C(Cl)=C(\C=O)c2ccc(Cl)c(Cl)c2)cc1       active
 7  O=C1C(Cl)=C(Nc2ccc(S(=O)(=O)Nc3ccccn3)cc2)C(=O)c2ccccc21       active
 8  O=[N+]([O-])c1cccc(Cl)c1C(Nc1nncs1)Nc1nncs1     inactive
 9  CC1C2CC(C(S(=O)(=O)N3CCOCC3)/C2=N\O)C1(C)C (stereo unspecified)       active
10   Oc1ccc(C(O)(c2ccccc2)c2ccccc2)c2ccccc12       active
11  CCOC(=O)C(=N\Nc1c(C)cccc1C)/C(C)=N\NC(N)=S     inactive

* * *

Test: NCI Yeast Anticancer Drug Screen. Data for the mec2-1 strain (AID 157)
Conditions: S. cerevisiae mec2-1 strain, at 5.0 µM (retest, dose inferred, filed as 0.5), stronger effect = higher value
Compounds without any hit were thinned out: in the full panel of roughly 79,000, 15% have a hit.
recorded endpoint: growth inhibition (%)

> print(dat)
                                   compound  recorded.endpoint  readout.value
1     Cc1nc(Nc2ccc(Cl)cc2)sc1C(=O)NNC(=S)NN  growth inhibition             -9
2  CN(CCC(=O)/C(=C\c1ccc(Cl)cc1)c1ccccc1)Cc1ccccc1  growth inhibition            100
3  O=C1OC(=O)C2C1C1C(c3ccccc3)=C(c3ccccc3)C2(O)C2C(=O)OC(=O)C12 (stereo not drawn)  growth inhibition              7
4  CCOc1ccc2c(c1)[n+]([O-])c(-c1ccccc1)c(N)[n+]2[O-]  growth inhibition             28
5               CCOC(=O)c1cnn(-c2ccccc2)c1N  growth inhibition             26
6  COc1ccccc1C(=O)N(Cc1ccccc1)c1ccc(Cl)c(C(=O)OC(C)C)c1  growth inhibition             -7
7         CC(C)c1ncc(-c2ccccc2)cc1-c1ccccc1  growth inhibition             -3
8       Clc1cc2c(c3ncccc13)OCN(Cc1ccccc1)C2  growth inhibition              1

* * *

Test: NCI Yeast Anticancer Drug Screen. Data for the mlh1 rad18 strain (AID 175)
Conditions: S. cerevisiae mlh1 rad18 strain growth inhibition; at 50.0 µM
About 79,000 compounds went through this panel and 15% of them were active in at least one assay; those are over-represented in the sample as a whole. Active and inactive are the calls of the source. Rule as the data show it: active = growth inhibition above about 70%; inactive = the rest.
Outcome codes: T for active, F for inactive

> print(dat)
                                    molecule  class.label
 1         CCCCCCCCCCCC(=O)NCCc1ccc(O)c(O)c1            T
 2  CC1OC(CC(=O)O)Cc2c1c(O)c1c(O)cc(-c3cc(=O)c4c(=O)c5c(c(=O)c=4c3=O)CC(CC(=O)O)OC5C)c(O)c1c2O (stereo not drawn)            F
 3  COc1ccc(S(=O)(=O)O)cc1-n1nc(C(=O)Nc2ccccc2)n[n+]1-c1cc(S(=O)(=O)[O-])ccc1OC            F
 4  Cc1nc2ccc(NCCN(C)C)c3c(=O)c4cc(O)ccc4n1c23            F
 5              c1ccc2c(c1)Nc1ccc3ccccc3c1S2            F
 6          CCOC(=O)Oc1ccc(C)cc1[N+](=O)[O-]            T
 7    CCCCCCCCCCCCNC(=O)C[n+]1ccc(C(N)=O)cc1            F
 8  CCOC(=O)C(NNc1ccccc1)C(c1ccccc1)[P+](c1ccccc1)(c1ccccc1)c1ccccc1 (stereo not drawn)            T
 9                              CCNc1ccccc1C            T
10  O=C(O)C1C(Br)(c2ccccc2)C1(Br)c1ccccc1 (stereo not drawn)            F
11      Clc1cc2c(c3ncccc13)OCN(CCc1ccccc1)C2            T
12         CN(C)CCOC(=O)C1(CCC2CCCCC2)CCCCC1            T
13  c1ccc2c(O[Si](Oc3cccc4ccccc34)(Oc3cccc4ccccc34)Oc3cccc4ccccc34)cccc2c1            T
14    O=C(O)Cc1cc(I)c(Oc2ccc(O)c(I)c2)c(I)c1            T
15  CCCCN(CCCC)CC(O)Cc1cc2ccccc2c2ccccc12 (stereo not drawn)            T
16           O=C1c2scc(-c3ccccc3)c2-n2cccc21            T
17  CC1=C(C2CO2)C(=O)C(C)=C(C2CO2)C1=O (stereo not drawn)            T
18  Cc1cc(=O)c2cc(N=Cc3ccc([N+](=O)[O-])o3)ccc2o1            F
19  C(=N\N=C\c1ccc2c(c1)OCO2)/c1ccc2c(c1)OCO2            F
20       O=C1c2ccccc2C(=O)c2c(OCCOCCO)cccc21            F
21  CC12CCC3C(CCC4CC(O)CCC43C)C1CC=CO2 (stereo not drawn)            F
22       CN(/N=C/c1ccc(C(=O)O)cc1)C1=NCCCCN1            F
23              Nc1ccc(N=Nc2ccccc2)c2ccccc12            T
24  CC(=O)OCC1OC(OC2CCCc3c(O)c4c(c(O)c32)C(=O)c2ccccc2C4=O)C(OC(C)=O)C(OC(C)=O)C1OC(C)=O (stereo not drawn)            T
25  CCCCN(CCCC)CC(O)c1cc(-c2ccc(Cl)cc2)nc2c(C)cccc12 (stereo not drawn)            T
26  COc1ccc(C(c2ccccc2C(=O)O)c2ccc(OC)c3ccccc23)c2ccccc12            T
27  C=C1C(=O)OC2C(C)C3C=CC(=O)[C@@]3(C)C(OC(=O)/C(C)=C/C)C1[C@@H]2OC(C)=O (stereo partly drawn)            T
28                     OCC(c1ccccc1)c1ccccc1            T
29  CC(C)=CCc1c2c(c(O)c3c(=O)c(-c4ccc(O)cc4O)coc13)C=CC(C)(C)O2            T
30   Nc1ccc2c(S(=O)(=O)O)cc(S(=O)(=O)O)cc2c1            F
31  c1ccc2cc3c(cc2c1)Nc1c2ccccc2nc2cccc-3c12            T
32  CC(=O)[O-].[Mn+3].[O-]c1ccc(Cl)cc1C=NCCN=Cc1cc(Cl)ccc1[O-]            T
33  O=C(CC(C(=O)O)c1c[nH]c2ccccc12)c1ccccc1 (stereo not drawn)            F
34  CC1(C)C(=O)C(C(Cl)(Cl)Cl)=C(Cl)C(=O)C1(Cl)Cl            F
35  O=c1cccccc1[O-].O=c1cccccc1[O-].O=c1cccccc1[O-].[La+3]            T
36  [Cl][Ge]([c]1ccccc1)[c]1ccccc1.[Cl][Ge]([c]1ccccc1)[c]1ccccc1            T
37  Cc1ccc(C2(c3ccc(F)cc3)OC(=O)c3ccccc32)c(O)c1 (stereo not drawn)            T
38              CCCCCCCCCCCCCCCC(=O)NCCN(C)C            T
